Just for reference, the array DNA melting data of Ke et al. (doi:10.1101/2024.01.08.574731) is where these values come from.

- assay_protocol: melting temperature; fluorescence melt of hairpins on a sequencing array, two-state fit, raised by 9.35 °C to match UV melts
- condition_summary: sodium 0.088 M
Binary call on Tm: 1.0 from 50 °C upward, 0.0 beneath that.

Some solved cases for reference:
GCGAATTCGAAAGAACGC (((..(((....)))))); 0.0
GGATCAGGAAACTGGTTC (.(.(((....))).).); 0.0

Tm >= 50 °C for GATCAAGGAAACTTGGTC ((.((((....)))).)) ? 0.0

And the next one, GCGTATACGAAAGTACGC (((..(((....)))))) ? 1.0

Next sequence: GCGACCGGAAACGACCGC (((..((....))..))) 0.0

Request: GCAAAGGGAAACCTCTGC (((.(((....))).))) 0.0

Repeat with GTGACCGGAAACGACCAC (((..((....))..))) 0.0

Request: GCCATGCGAAAGCATTGC ((.((((....)))).)) 1.0

Same thing, different sequence: GTAAACGAAAGTTTAC ((((((....)))))) 1.0

Entry GAGCGTGGAAACATGCTC ((((.((....)).)))) please 1.0

Also GATCATCGCAATGATC ((((((....)))))) ? 0.0

Further, for GAGTTAGCGAAAGCTCTC (((..(((....)))))) ? 0.0

Also, GGCGAGGGAAACCCCGCC ((((.((....)).)))) please. 1.0

Same question for GATCGAGTTTCGATC ((((((...)))))) please. 1.0

Record: GATCCCGAAAGGGATATC ((((((....)))..))) 1.0

# iterate: GTGAGTGGAAACACTTAC ((.((((....)))).)) 0.0

Can you handle GACGGACGAAAGTCTGTC (((.(((....))).))) next? 1.0

---

- assay_protocol: melting temperature; fluorescence melt of hairpins on a sequencing array, two-state fit, raised by 9.35 °C to match UV melts
- condition_summary: sodium 0.088 M
Simple rule here: Tm less than 40 °C is Satisfied, otherwise Not satisfied.

GCAATCGAAAGATTCTGC ((((((....)))..))); Satisfied
GCCACTCCGAAAGGAGGC (((..(((....)))))); Not satisfied
GCGTTCGAAAGAAGTCGC ((((((....)))..))); Satisfied
GCCTGGCGAAAGCCGTGC ((..(((....)))..)); Not satisfied
GAGTACCCGAAAGGGCTC (((..(((....)))))); Satisfied

In the following, a different sequence is considered.
Regarding GCATCAGGAAACCAATGC ((((..(....)..)))) , kindly confirm whether its Tm is beneath 40 °C. Satisfied

---

- assay_protocol: folding enthalpy; higher = less favourable; fluorescence melt of hairpins on a sequencing array, two-state fit
- condition_summary: sodium 0.088 M
Please enter 1 (yes) where folding enthalpy is greater than or equal to -20 kcal/mol, and 0 (no) where it is lower.

Answered cases to consult:
GTGCTCGAAAGAGGTCAC ((((((....)))..))); 1 (yes)
GGGAACGAAAGTTGCCC ((((((....))).))); 0 (no)
GTGCTCGAAAGAGTGCAC ((((((....)))..))); 0 (no)
GCAGCGCGAAAGCGTAGC ((..(((....)))..)); 1 (yes)

Confirm if folding enthalpy reported for the sequence GGGTGGTCGAAAGACCCC (((..(((....)))))) is -20 kcal/mol or above. 1 (yes)

Now consider GATCTTTTTCAAGATC ((((((....)))))) and answer again. 0 (no)

What do you have for GCCTGGCGAAAGCTCGGC (((..((....))..))) ? 1 (yes)

Query GCTTGCGGAAACGCAAAC (.(((((....))))).) next 1 (yes)

Next sequence up: CGTTACGGAAACGTGACG (((.(((....))).))) 0 (no)

What about GACTCCCCGAAAGGGGTC (((..(((....)))))) ? 1 (yes)
